The measured values listed here are drawn from PubChem BioAssay (NCI).

# assayProtocol: NCI Yeast Anticancer Drug Screen. Data for the rad50 strain (AID 155);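 further: 0% = growth of vehicle-only cultures of the same strain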
# experimentalConditions: S. cerevisiae rad50 strain growth inhibition; at 50.0 µM (retest, dose inferred, filed as 5.0); stronger effect = higher value
Compounds without any hit were thinned out: in the full panel of roughly 79,000, 15% have a hit.
Label scheme for growth inhibition: lower than 90% is No, 90% and above is Yes.

Q: Could you verify whether the entry Cc1nc2c(Cl)nc(Cl)nc2s1 shows growth inhibition of no less than 90%?
A: Yes

Q: Can you check C=CCOCCC=O next?
A: No

Q: Would you kindly repeat that for C=CC1(C)CCC2C(=CCC3C(C)(COC4OC(CO)C(O)C(O)C4O)C(O)CCC23C)C1 (centres undefined) ?
A: Yes

Q: Also check CC(C)=CC1C(COC(=O)CCl)C1(C)C (centres undefined)
A: No

Q: Same lookup for CC(C)(COC(=O)Nc1cccc(Cl)c1)[N+](=O)[O-] , please.
A: No

Q: Next record, please: COC1=CC2=CCC3C(CCC4(C)C(C(C)=O)CCC34)C2(C)CC1 (centres undefined)
A: No

Q: Another compound to check: COc1ccc(CNc2nc3cc(C(F)(F)F)ccc3nc2C)cc1OC
A: No

Q: Same lookup for O=P1(O)c2ccccc2CS(=O)(=O)Cc2ccccc21 , please.
A: No

Q: Try the compound O=[N+]([O-])c1ccc2c(c1)/C(=N/O)c1ccccc1-2
A: No

Q: Query O=c1cc(Cl)c(Cl)nn1-c1ccccc1 next
A: No

Q: Next: Cc1cc(O)n(Cc2ccccc2)c(=O)c1
A: No

Q: Request: CN(C)C1=C(Cl)C(=O)c2ccccc2C1=O
A: Yes

Q: And the next one, Nc1nc(-c2cccnc2)nc(N)c1N=O ?
A: No

Q: Would you kindly repeat that for CN1CCN(CCn2c3c4ccccc4ccc3c3oc(=O)c4ccccc4c32)CC1 ?
A: Yes

Q: Try this compound next: CS(=O)(=O)C(=Cc1ccccc1Cl)S(C)(=O)=O
A: No

Q: Then Cc1cc2c(Br)cc(Br)c(O)c2nc1C(=O)c1ccccc1 ?
A: No

Q: Request: Oc1ccc(SCc2cc(O)ccc2O)cc1
A: Yes

Q: And then O=C(N/C(=C\c1ccc(Cl)cc1)c1nc2ccccc2s1)c1ccccc1 , what is it?
A: Yes

Q: Here is the next compound: COc1ccc(C2(O)c3ccccc3C(=O)C2c2ccccn2)cc1 (centres undefined)
A: No

Q: Subsequent entry: C/C=C/C/C=C/CCC(=O)C1OC1C(N)=O (centres undefined)
A: Yes

Q: What do you get for CCC[CH2][Ge]([CH2]CCC)([CH2]CCC)[O]C(=O)CC(=O)c1ccccc1 ?
A: No

Q: // next record CCCCN(CCCC)CC(O)c1cc(-c2ccc(Cl)cc2)nc2c(C)cccc12 (centres undefined)
A: Yes

Q: Please answer likewise for CCSC(=Nc1nc2ccc(NC(C)=O)cc2s1)SCC
A: Yes

Q: Also, CCOC(=O)Nc1c(F)cc(F)cc1F please.
A: No

Q: Continue with O=c1[nH][nH]c(=O)c2c1nc(SCc1ccccc1)n2Cc1ccccc1
A: No

Q: Quick one: O=C(O)Cc1cccc2c(=O)c3cccc([N+](=O)[O-])c3[nH]c12
A: No

Q: Try this compound next: C/C=C\C=N\NC(N)=S
A: No

Q: C=C1CC2(CC(C(C)C)CCC2C)OC1=O (centres undefined) , same question.
A: No

Q: Item: CC(CC(C)[C@H]1CCC2[C@H]3C(CC[C@@]21C)[C@@]1(C)CCC(O)C[C@H]1C[C@@H]3O)C(=O)O (some centres undefined)
A: Yes

Q: How about this compound: CCN(CC)CC(O)c1ccc2cc(Cl)c3ccccc3c2c1 (centres undefined)
A: Yes

Q: Another compound: CCCCOC(=O)c1n[nH]c(C)c1N=NN(C)C
A: Yes

Q: Okay, and CCCCCC(/C=N/NC(N)=S)C(O)(C(F)(F)F)C(F)(F)F (centres undefined) ?
A: No

Q: Moving on to OCC(O)Cc1c(Cl)c(Cl)c(Oc2c(Cl)c(Cl)c(CC(O)CO)c(Cl)c2Cl)c(Cl)c1Cl (centres undefined)
A: No

Q: Next entry: CCCCOC(c1ccccc1)N1CCCCC1 (centres undefined)
A: No

Q: What about this compound? COc1ccc(CCBr)cc1
A: No

Q: Follow-up item: Nc1nc(SCc2ccccc2)c2ncn(CCCl)c2n1
A: No

Q: // same read-out, input: COc1ccc2c(ccc[n+]2CC(=O)c2ccc(-c3ccccc3)cc2)c1
A: No

Q: Then what about the compound C/C(=C\c1ccccc1Cl)c1ccccn1 ?
A: No

Q: Okay, and NNc1ccccc1[N+](=O)[O-] ?
A: No

Q: Now the same for Nc1ncnc2nc(SCCO)[nH]c12
A: No

Q: Follow-up item: Cc1nn(C(=O)c2ccccc2O)c2c1C(c1ccc(O)cc1O)SC(N)=N2 (centres undefined)
A: No

Q: Then this compound: CCCCCCCCCc1ccc(OCC(O)CO)cc1 (centres undefined)
A: Yes

Q: Also, Cc1cccc(/C=N/Nc2ccccn2)n1 please.
A: No

Q: // same read-out, input: Cn1cnc([N+](=O)[O-])c1Sc1nc2ccccc2s1
A: Yes

Q: Next: CCCCCc1cc(Cl)cc(Cl)c1O
A: No

Q: Follow-up item: OCCN(CCO)c1cc(/C=C/c2ccnc3ccccc23)nc2ccccc12
A: No

Q: Follow-up item: Cc1ccc2c(c1)C(O)(c1ccccc1)CCS2 (centres undefined)
A: Yes

###

Please go through the items and note down their growth inhibition.
# assayProtocol: NCI Yeast Anticancer Drug Screen. Data for the mlh1 rad18 strain (AID 175)
# experimentalConditions: S. cerevisiae mlh1 rad18 strain growth inhibition; at 5.0 µM (retest, dose inferred, filed as 0.5); stronger effect = higher value
The panel holds about 79,000 compounds, 15% with a hit somewhere; the sample as a whole holds those more often.
Hi! Could you send only the number? It should be in %, unit omitted.

Q: Item under review: CN(/N=C/c1ccc(C(=O)O)cc1)C1=NCCCCN1 . Reported growth inhibition?
A: 1

Q: Next record, please: O=C(O)CCC(=O)NCCNC(=O)CC(=O)O
A: -116

Q: Now consider c1ccc2c(c1)-c1cccc3cncc-2c13 .
A: 33

Q: Next: CCOC(=O)C1=C(C)NC(C)=C(C(=O)OCC)C1c1ccc([N+](=O)[O-])s1
A: 65

Q: Now give it for COC(=O)CCC(=O)c1ccc2c(c1)CC1(Cc3ccccc3C1)C2 too.
A: 29

Q: Could you do the same for NNC(=O)c1ccccc1SSc1ccccc1C(=O)NN , please?
A: 71

Q: Next entry: CCCC(=O)Oc1c(Br)cc(Br)cc1Br
A: -1

Q: Consider next the molecule C[n+]1c(-c2ccc(/C=N/Nc3ccnc(N/N=C/c4ccc(-c5cn6ccccc6[n+]5C)cc4)n3)cc2)cn2ccccc21 in the same way.
A: 99

Q: Item: Cc1ccc(N2C(=O)C(C)SC2=S)cc1Cl (centres undefined)
A: -5

Q: Repeat with O=c1c(-c2ccccc2)c1-c1ccccc1
A: 1

Q: Would you kindly repeat that for CC(=Nc1ccc(S(=O)(=O)c2ccc(N=C(C)N3CCCCC3)cc2)cc1)N1CCCCC1 ?
A: -2

Q: Input O=C(CCl)NC(=O)N(/N=C/c1ccco1)c1ccccc1
A: 3

Q: Please answer likewise for O=C1/C(=C/c2cccc(F)c2)CCCc2ccccc21
A: 2

Q: Similarly, O=[N+]([O-])c1ccc2nc(-c3ccccn3)[nH]c2c1 ?
A: -38

Q: Query Nc1ccccc1SC(C[N+](=O)[O-])c1ccc2c(c1)OCO2 (centres undefined) next
A: 65

Q: // next record Fc1ccc(CSC(=S)Nc2cccc(C(F)(F)F)c2)cc1
A: 7

Q: Same thing, different molecule: Cc1ccc(S(=O)(=O)NNc2nc(N3CCOCC3)nc(N3CCOCC3)n2)cc1
A: 0

Q: What do you have for CN(/N=C/c1ccc([N+](=O)[O-])o1)C(N)=O ?
A: 22

Q: Continue with COc1cccc(C=O)c1O
A: 1

Q: And for CSC(=S)NN=C(c1ccccc1)c1ccccc1 ?
A: 16

Q: Let us now turn to O=P1(O)c2ccccc2CS(=O)(=O)Cc2ccccc21
A: 35

Q: What do you get for COc1ccc(/C=C2\CN(C)C/C(=C\c3ccc(OC)cc3)C2=O)cc1 ?
A: 25

Q: How about this molecule: C[C@@H]1CN(CC2COc3ccccc3O2)[C@@H](C)CN1CC1COc2ccccc2O1 (some centres undefined)
A: 82

Q: Here is the next molecule: C=C1CC2(CC(C(C)C)CCC2C)OC1=O (centres undefined)
A: 35

###

# assayProtocol: NCI Yeast Anticancer Drug Screen. Data for the cln2 rad14 strain (AID 165);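 further: 0% = growth equal to vehicle treated cultures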
# experimentalConditions: S. cerevisiae cln2 rad14 strain, at 50.0 µM (retest, dose inferred, filed as 5.0), stronger effect = higher value
The panel holds about 79,000 compounds, 15% with a hit somewhere; the sample as a whole holds those more often.
measurementType: growth inhibition (%)
Quick note: give the figure in %, leave out the unit.

Q: Given the entry O=[N+]([O-])c1ccc2nc(Nc3ccccc3)c(Nc3ccccc3)nc2c1 , report its measured growth inhibition.
A: 93

Q: What about this compound? CN1C(/C=C/c2ccc(O)c3ncccc23)CCC2CCCC(O)C21 (stereo not drawn)
A: 91

Q: Ok, now O=[N+]([O-])c1ccccc1NCCO
A: 4

Q: What do you get for Cc1ccc[n+](CC(=O)C2CCC3C4CC=C5CC(O)CCC5(C)C4CCC23C)c1 (stereo not drawn) ?
A: 25

Q: Ok, now CCOc1ccc2c(c1)n([O-])c1cc(Br)ccc1[n+]2=O
A: 90

Q: Repeat with COc1ccccc1NC(=O)Oc1ccc(C(C)(CCC(=O)O)c2ccc(OC(=O)Nc3ccccc3OC)cc2)cc1
A: -20

Q: What would you report for COc1ccc(C2C3=C(CCCC3=O)Oc3cc4c(cc32)OCO4)c(OC)c1 (stereo not drawn) ?
A: 88

Q: Similarly, COC1OC(CO)C(O)C(OC(=O)c2ccc([N+](=O)[O-])cc2)C1OS(=O)(=O)c1ccc(C)cc1 (stereo not drawn) ?
A: -1

Q: Entry to check: CCOC(=O)C(NNc1ccccc1)C(c1ccccc1)[P+](c1ccccc1)(c1ccccc1)c1ccccc1 (stereo not drawn)
A: 99

Q: Another compound to check: COC(=O)c1ccc(C)cc1C1CN=NC12Cc1cccc(C)c1C2=O (stereo not drawn)
A: 10

Q: Please do the same for CC(C)(C)N=C=NC(c1ccccc1)(c1ccccc1)c1ccccc1 as well.
A: -18

Q: Likewise for Cc1ccc(-c2c3nc(c(-c4ccc(C)cc4)c4ccc([nH]4)c(-c4ccc(C)cc4)c4nc(c(-c5ccncc5)c5ccc2[nH]5)C=C4)C=C3)cc1.Cc1ccc(-c2c3nc(c(-c4ccc(C)cc4)c4ccc([nH]4)c(-c4ccc(C)cc4)c4nc(c(-c5ccncc5)c5ccc2[nH]5)C=C4)C=C3)cc1.O=S(=O)([O-])C(F)(F)F.[Pt+2].c1ccc([PH+](CCC[PH+](c2ccccc2)c2ccccc2)c2ccccc2)cc1 ?
A: 45

Q: Now this one: O=Cc1cc2ccccc2cc1C=O
A: 95

Q: Okay, and Oc1ccc(C2CCCCC2)cc1 ?
A: 37

Q: What would you report for COc1ccc2c(c1)CCc1c(CO)c(COC(=O)NC(C)C)n(C)c1-2 ?
A: 85

Q: Entry to check: CN(C)CC/[N+]([O-])=C(/c1ccccc1)C12CC3CC(CC(C3)C1)C2
A: -1

Q: Record: O=[N+]([O-])c1cccc(Cl)c1C(Nc1nncs1)Nc1nncs1
A: 20

Q: Same question, Cc1cc(C[P+](c2ccccc2)(c2ccccc2)c2ccccc2)c(C)cc1C[P+](c1ccccc1)(c1ccccc1)c1ccccc1 this time
A: 32
